Biological target: rhesus c-Met on 4MBr-5 cells (rhesus)
Experiment: cell-based or functional assay
value_kind: EC50 [nM] Inhibition of HGF driven proliferation 4MBr-5 (nM)
Provide the reading as a plain figure in nM.

Check out these entries, answers already filled in.
04687 in IgG format (antibody, V domains shown) VH: QVQLVQSGAEVKKPGSSVKVSCKASGGTFSSYAISWVRQAPGQGLEWMGGIDPFGTANYAQKFQGRVTITADESTSTAYMELSSLRSEDTAVYYCARVYQDVWGQGTLVTVSS VL: DIVMTQSPDSLAVSLGERATINCRSSQSILYGINNNFLGWYQQKPGQPPKLLIYWASTRESGVPDRFSGSGSGTDFTLTISSLQAEDVAVYYCQQYYNHPHTFGQGTKVEIKR; 6
04541 in IgG format (antibody, V domains shown) VH: QVQLQESGPGLVKPGETLSLTCTVSGGSISSSSYYWNWIRQAPGKGLEWIGEIYFGWTYYNPSLKGRVTISVDTSKNQFSLKLSSVTAEDTAVYYCARGYEFHGYTTFDYWGQGTLVTVSS VL: DIELTQPPSVSVAPGQTARISCSGDNIGSYYVYWYQQKPGQAPVLVIYDDNDRPSGIPERFSGSNSGNTATLTISGTQAEDEADYYCQSYDFPSIVFGGGTKLTVLG; 200

Pending binder:
Please look up its EC50 [nM] Inhibition of HGF driven proliferation 4MBr-5: 04537 in IgG format (antibody, V domains shown) VH: QVQLVQSGAEVKKPGESLKISCKGSGYSFSNYWIGWVRQMPGKGLEWMGFIFPDTSYTRYSPSFQGQVTISADKSISTAYLQWSSLKASDTAMYYCARVKLITDYWGQGTLVTVSS VL: DIELTQPPSVSVAPGQTARISCSGDSLRSYFVSWYQQKPGQAPVLVIYDDDDRPSGIPERFSGSNSGNTATLTISGTQAEDEADYYCASWDTLSDVEVFGGGTKLTVLG 150
